Reference source for all entries: ChEMBL document CHEMBL1143006

TEST_TARGET: Growth factor receptor-bound protein 2 (Homo sapiens)
Sequence (P62993 whole entry, the tested form may be a part): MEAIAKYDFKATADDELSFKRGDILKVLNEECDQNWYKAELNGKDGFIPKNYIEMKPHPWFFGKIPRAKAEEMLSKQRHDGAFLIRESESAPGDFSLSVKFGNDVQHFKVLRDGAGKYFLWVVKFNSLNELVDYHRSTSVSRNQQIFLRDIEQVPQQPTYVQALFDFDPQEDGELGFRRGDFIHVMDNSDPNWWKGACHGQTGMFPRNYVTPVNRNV
ASSAY_SUMMARY: Binding affinity to Grb2-SH2 domain by surface plasmon resonance
RECORDED_METRIC: Kd (nM)
The reply should contain only the number, in nM.

>>> measurement("NC(=O)C[C@H](NC(=O)C1(NC(=O)[C@@H](CC(=O)O)Cc2ccc(CP(=O)(O)O)cc2)CCN(S(=O)(=O)CCc2ccccc2)CC1)C(=O)NCCCc1ccc2ccccc2c1")
2140
>>> measurement("NC(=O)C[C@H](NC(=O)C1(NC(=O)[C@@H](CC(=O)O)Cc2ccc(CP(=O)(O)O)cc2)CCN(C(=O)NCCc2ccccc2)CC1)C(=O)NCCCc1ccc2ccccc2c1")
272

Now look at this one.
Prompt: Quick check: Kd of Cc1ccc2c(ccn2CCC(=O)N2CCC(NC(=O)[C@@H](CC(=O)O)Cc3ccc(CP(=O)(O)O)cc3)(C(=O)N[C@@H](CC(N)=O)C(=O)NCCCc3ccc4ccccc4c3)CC2)c1 ?
Response: 458
